# system tested: Tubulin (Bos taurus) (UniProt Q6B856+Q862L2+Q862F3)
# experiment notes: Concentration which causes polymerization of 50% of the tubulin present in 15 min at 37 degree C was tested in vitro relative to paclitaxel (1)
# Type: functional
result type: Ratio

Tell us which Ratio value is on record for CC(=O)O[C@H]1C(=O)[C@]2(C)[C@@H](O)CC3OC[C@@]3(OC(C)=O)[C@H]2[C@H](OC(=O)c2ccsc2)[C@]2(O)C[C@H](OC(=O)[C@H](O)[C@@H](NC(=O)c3ccccc3)c3ccccc3)C(C)=C1C2(C)C (some centres undefined)
1.4

In one line, give reported Ratio of the entry CC(=O)O[C@H]1C(=O)[C@]2(C)[C@@H](O)CC3OC[C@@]3(OC(C)=O)[C@H]2[C@H](OC(=O)c2cccnc2)[C@]2(O)C[C@H](OC(=O)[C@H](O)[C@@H](NC(=O)c3ccccc3)c3ccccc3)C(C)=C1C2(C)C (some centres undefined) .
4

Give the reported value of Ratio for this record: CC(=O)O[C@H]1C(=O)[C@]2(C)[C@@H](O)CC3OC[C@@]3(OC(C)=O)[C@H]2[C@H](OC(=O)c2cccs2)[C@]2(O)C[C@H](OC(=O)[C@H](O)[C@@H](NC(=O)c3ccccc3)c3ccccc3)C(C)=C1C2(C)C (some centres undefined)
1.1

Input `CC(=O)O[C@H]1C(=O)[C@@]2(C)[C@H]([C@H](OC(=O)c3ccccc3)[C@]3(O)C[C@H](OC(=O)[C@H](O)[C@@H](NC(=O)c4ccccc4)c4ccccc4)C(C)=C1C3(C)C)[C@]1(OC(C)=O)CO[C@@H]1C[C@@H]2O` , output reported Ratio.
1

Tell me its Ratio given CC(=O)O[C@H]1C(=O)[C@]2(C)[C@@H](O)CC3OC[C@@]3(OC(C)=O)[C@H]2[C@H](OC(=O)c2ccccn2)[C@]2(O)C[C@H](OC(=O)[C@H](O)[C@@H](NC(=O)c3ccccc3)c3ccccc3)C(C)=C1C2(C)C (some centres undefined) as the entry.
2.8

State its Ratio: CC(=O)O[C@H]1C(=O)[C@]2(C)[C@@H](O)CC3OC[C@@]3(OC(C)=O)[C@H]2[C@H](OC(=O)c2ccoc2)[C@]2(O)C[C@H](OC(=O)[C@H](O)[C@@H](NC(=O)c3ccccc3)c3ccccc3)C(C)=C1C2(C)C (some centres undefined)
2.1

Return the recorded Ratio value; entry: CC(=O)O[C@H]1C(=O)[C@]2(C)[C@@H](O)CC3OC[C@@]3(OC(C)=O)[C@H]2[C@H](OC(=O)c2cccn2C)[C@]2(O)C[C@H](OC(=O)[C@H](O)[C@@H](NC(=O)c3ccccc3)c3ccccc3)C(C)=C1C2(C)C (some centres undefined)
2.6

Quick one: give measured Ratio for CC(=O)O[C@H]1C(=O)[C@]2(C)[C@@H](O)CC3OC[C@@]3(OC(C)=O)[C@H]2[C@H](OC(=O)c2ccco2)[C@]2(O)C[C@H](OC(=O)[C@H](O)[C@@H](NC(=O)c3ccccc3)c3ccccc3)C(C)=C1C2(C)C (some centres undefined)
2.4

Answer with reported Ratio of CC(=O)O[C@H]1C(=O)[C@]2(C)[C@@H](O)CC3OC[C@@]3(OC(C)=O)[C@H]2[C@H](OC(=O)c2ccncc2)[C@]2(O)C[C@H](OC(=O)[C@H](O)[C@@H](NC(=O)c3ccccc3)c3ccccc3)C(C)=C1C2(C)C (some centres undefined)
7.3
